- Test name: Inhibition of Burkholderia pseudomallei beta-CA incubated for 15 mins by stopped-flow CO2 hydration assay
pKi: −log10 of the molar value.
What pKi was measured for each of the following?

Which pKi is reported for this compound? [O-][Cl+3]([O-])([O-])O [SODIUM PERCHLORATE]
< 1.00

Need pKi of F[B-](F)(F)F.[Na+] [SODIUM TETRAFLUOROBORATE] , thanks.
< 1.00

Which pKi reading was recorded for the compound [N-]=[N+]=[N-] [SODIUM AZIDE] ?
< 1.00

What value of pKi has been recorded for this entry: O=BOB(O)OB(O)OB=O [SODIUM TETRABORATE]
< 1.00

Name the reported pKi value associated with the compound [F-].[Na+] [SODIUM FLUORIDE]
< 1.00

Given the entry N#CO [SODIUM CYANATE] , report its measured pKi.
2.17
